Every entry's value here was drawn from patent US11447497B2.

# Target: Caspase-1 (Homo sapiens (Human), UniProt P29466)
# Sequence (P29466 120-297): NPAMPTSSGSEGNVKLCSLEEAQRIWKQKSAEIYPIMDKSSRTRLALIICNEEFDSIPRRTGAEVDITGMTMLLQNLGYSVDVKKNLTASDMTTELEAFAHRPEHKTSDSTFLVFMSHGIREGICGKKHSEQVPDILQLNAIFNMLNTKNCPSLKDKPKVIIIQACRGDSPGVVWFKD
# Sequence (P29466 317-404): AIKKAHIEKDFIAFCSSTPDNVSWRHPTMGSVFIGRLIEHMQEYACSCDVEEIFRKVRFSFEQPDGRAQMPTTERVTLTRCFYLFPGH
pIC50: −log10 of the molar value.
Quantity measured: pIC50

- O=C(O)C[C@H](NC(=O)CN1CCN(Cc2ccccc2)C(=O)C1)C(=O)COc1ccnc(C(F)(F)F)n1: 7.19

---

pIC50: −log10 of the molar value.
pIC50 data for UniProtKB P42574 follow.
Sequence (P42574 29-175): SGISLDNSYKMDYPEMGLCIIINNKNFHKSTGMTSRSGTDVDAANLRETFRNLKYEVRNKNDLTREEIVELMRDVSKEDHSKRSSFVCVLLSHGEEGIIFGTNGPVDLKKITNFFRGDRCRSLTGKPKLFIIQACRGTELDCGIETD
Sequence (P42574 176-277): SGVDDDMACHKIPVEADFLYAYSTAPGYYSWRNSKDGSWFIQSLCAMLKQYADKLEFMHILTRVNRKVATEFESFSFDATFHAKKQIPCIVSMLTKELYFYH
Quantity measured: pIC50

- O=C(O)C[C@H](NC(=O)CN1CCN(Cc2ccccc2)C(=O)C1)C(=O)COc1c(F)c(F)cc(F)c1F: 6.88
- O=C(O)C[C@H](NC(=O)CN1CCN(Cc2ccccc2)CC1=O)C(=O)COc1c(F)c(F)cc(F)c1F: 7.49
- O=C(O)C[C@H](NC(=O)CN1CCN(Cc2ccccc2)C(=O)C1)C(=O)COc1ccnc(C(F)(F)F)n1: 6.00

---

# Target: Caspase-9 (Homo sapiens (Human))
# Sequence (P55211 1-315): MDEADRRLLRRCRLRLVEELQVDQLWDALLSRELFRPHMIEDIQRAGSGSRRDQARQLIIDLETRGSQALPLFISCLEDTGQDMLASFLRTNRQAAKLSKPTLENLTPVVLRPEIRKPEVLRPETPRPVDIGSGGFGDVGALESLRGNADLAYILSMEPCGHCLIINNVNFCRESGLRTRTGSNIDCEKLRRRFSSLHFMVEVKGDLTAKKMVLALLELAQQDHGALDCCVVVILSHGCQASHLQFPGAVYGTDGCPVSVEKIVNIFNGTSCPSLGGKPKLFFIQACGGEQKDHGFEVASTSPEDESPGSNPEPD
# Sequence (P55211 331-416): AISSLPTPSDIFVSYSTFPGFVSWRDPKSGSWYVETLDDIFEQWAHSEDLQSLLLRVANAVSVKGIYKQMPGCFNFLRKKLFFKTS
# Protocol details: Caspase-9 assay, inhibition of caspase activity
# Format: biochemical
# Run conditions: human caspase-9
# Experimental: Assay for the Inhibition of Caspase Activity and Determination of IC50 Values Human caspases were purchased from Enzo Biosciences and used according to the manufacturer's instructions. An exemplary caspase assay, for Caspase-1, is provided below: The data was graphed as OD405 nm vs time, and the slope was determined over the linear portion of the curve. […]
IC50 for assorted compounds
Quantity measured: IC50 (nM)

• O=C(O)C[C@H](NC(=O)CN1CCN(Cc2ccccc2)C(=O)C1)C(=O)COc1c(F)c(F)cc(F)c1F [Example 1] = 122
• O=C(O)C[C@H](NC(=O)CN1CCN(S(=O)(=O)c2ccccc2)CC1)C(=O)COc1c(F)c(F)cc(F)c1F [Example 4] = 107
• O=C(O)C[C@H](NC(=O)CN1CCN(Cc2ccccc2)CC1=O)C(=O)COc1c(F)c(F)cc(F)c1F [Example 2] = 38
• O=C(O)C[C@H](NC(=O)CN1CCN(Cc2ccccc2)C(=O)C1)C(=O)COc1ccnc(C(F)(F)F)n1 [Example 3] = 1000
